# testedSystem: Akt3 (Homo sapiens)
# Construct: unspecified tag, removed (detagged) (cleaved yes); purchased SignalChem and Proteros (Akt3); Merck Millipore (PDK1) 14-452 (PDK1); none given for Akt3
# Sequence (Q9Y243 whole entry): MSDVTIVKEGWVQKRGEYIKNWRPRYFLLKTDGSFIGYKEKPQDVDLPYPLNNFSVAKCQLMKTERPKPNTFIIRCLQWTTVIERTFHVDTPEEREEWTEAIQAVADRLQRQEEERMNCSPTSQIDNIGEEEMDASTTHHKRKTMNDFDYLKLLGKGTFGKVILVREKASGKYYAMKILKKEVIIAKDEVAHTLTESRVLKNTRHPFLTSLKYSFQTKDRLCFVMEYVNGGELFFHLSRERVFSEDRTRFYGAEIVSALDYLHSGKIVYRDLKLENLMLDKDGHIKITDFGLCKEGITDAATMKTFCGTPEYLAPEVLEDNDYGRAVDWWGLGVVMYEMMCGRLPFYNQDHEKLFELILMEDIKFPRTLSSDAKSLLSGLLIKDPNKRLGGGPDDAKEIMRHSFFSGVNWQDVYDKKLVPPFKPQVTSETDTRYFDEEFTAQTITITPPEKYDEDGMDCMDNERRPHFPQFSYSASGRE
# assay: Akt activation assay (PDK1-mediated activation, LANCE Ultra crosstide TR-FRET), Akt3
# Type: biochemical
# reportedConditions: read-out: Biological Assay 1 IC50 (nM) Akt3
endpointName: IC50 (nM)
Expressed in nM, but write only the number.

// returns reported IC50 for input COC(=O)N(C)C1CCC(CC(=O)Nc2cnc(-c3ccc(C4(N)CC(F)C4)cc3)c(-c3ccsc3)c2)CC1 (stereo not shown) 44

Returns the measured IC50 for the input compound. Input: `CN(C(=O)C1CCC1)[C@H]1CC[C@H](CC(=O)Nc2cc(-c3ccccc3)c(-c3ccc(C4(N)CC4)cc3)nn2)CC1` 37

Which value of IC50 has been reported for `COC(=O)N(C)[C@H]1CC[C@H](CC(=O)Nc2cc(-c3ccccn3)c(-c3ccc(C4(N)CCC4)cc3)cn2)CC1` in the records? 480

For `CC(C)(C)C(=O)N[C@H]1CC[C@H](CC(=O)Nc2cnc(-c3ccc(C(C)(C)N)cc3)c(-c3ccccc3)c2)CC1` , what is its reported IC50? 160

// returns reported IC50 for input `CC(C)C(=O)N(C)[C@H]1CC[C@H](CC(=O)Nc2cc(-c3ccccc3)c(-c3ccc(C4(N)CC4)cc3)nn2)CC1` 29

I have this compound here, `Cc1nncn1[C@H]1CC[C@H](CC(=O)Nc2cnc(-c3ccc(C(C)(C)N)cc3)c(-c3ccccc3)c2)CC1` , and I need its recorded IC50. 430

Which IC50 reading was recorded for the compound `C[C@H](N)c1ccc(-c2ncc(NC(=O)C[C@H]3CC[C@H](N(C)S(C)(=O)=O)CC3)cc2-c2ccccc2)cc1` ? 830

###

Assign log10 IC50 to each entry below.
# testedSystem: p-Akt3 in WM115 cells (Homo sapiens, UniProt Q9Y243)
# Construct: SureFire assays to detect cellular p-Akt1, p-Akt2 and p-Akt3 levels in WM115 cells (Akt2/3) and LNCaP cells (Akt1); endogenous in cells; host or cells: WM115 (ECACC 91061232), insulin-stimulated
# assay: Phospho-Akt cellular SureFire assay, p-Akt3 in WM115 cells
# Type: cell-based
# reportedConditions: insulin stimulated, read-out: Biological Assay 2 IC50 (nM) Akt3 WM115
Note the log scale: values are log10 of IC50 expressed in nM.

Please report the recorded log10 IC50 for `CC(=O)N(C(C)C)[C@H]1CC[C@H](CC(=O)Nc2cnc(-c3ccc([C@]4(N)C[C@](C)(O)C4)cc3)c(-c3ccccc3)c2)CC1` . 1.18

Fill in the blank: the reported log10 IC50 of `CN(C(=O)C1CC1)[C@H]1CC[C@H](CC(=O)Nc2cc(-c3ccccc3)c(-c3ccc([C@]4(N)C[C@](C)(O)C4)cc3)cn2)CC1` is ____. 1.11

Please report the recorded log10 IC50 for `COC(=O)N(C)[C@H]1CC[C@H](CC(=O)Nc2cnc(-c3ccc(C4(N)CCC4)cc3)c(-c3ccccc3)c2)CC1` . 2.11

What does the data say about its log10 IC50? Entry: `COC(=O)N(C)[C@H]1CC[C@H](CC(=O)Nc2cnc(-c3ccc(C4(N)CC4)c(F)c3)c(-c3ccccc3)c2)CC1` 2.56

// returns reported log10 IC50 for input `N[C@]1(c2ccc(-c3cnc(NC(=O)C[C@H]4CC[C@H](N5CCOC5=O)CC4)cc3-c3ccccc3)cc2)C[C@@H](F)C1` 2.61

I'd like to know its log10 IC50. The compound in question is `N[C@]1(c2ccc(-c3nnc(NC(=O)C[C@H]4CC[C@H](N5CCOC5=O)CC4)cc3-c3ccccc3)cc2)C[C@@H](F)C1` 1.58

Could you tell me which log10 IC50 is on file for `COCCN(C)[C@H]1CC[C@H](CC(=O)Nc2cc(-c3ccccc3)c(-c3ccc([C@]4(N)C[C@](C)(O)C4)cc3)cn2)CC1` ? 1.97

I would be grateful if you could share the reported log10 IC50 for `CCN(C(=O)OC)[C@H]1CC[C@H](CC(=O)Nc2cc(-c3ccccc3)c(-c3ccc([C@]4(N)C[C@](C)(O)C4)cc3)cn2)CC1` . 1.86

Bench note: what log10 IC50 did `CN(C(=O)C1CC1)[C@H]1CC[C@H](CC(=O)Nc2cnc(-c3ccc(C(C)(C)N)c(F)c3)c(-c3ccccc3)c2)CC1` show? 2.83

Item under review: `CC(=O)N(C)[C@H]1CC[C@H](CC(=O)Nc2cc(-c3ccccc3)c(-c3ccc(C4(N)CCC4)cc3)nn2)CC1` . Reported log10 IC50? 1.63

May I ask what log10 IC50 has been recorded for `CC(=O)N(C)[C@H]1CC[C@H](CC(=O)Nc2cc(-c3ccsc3)c(-c3ccc(C4(N)CCC4)cc3)cn2)CC1` ? 1.93

Find the recorded log10 IC50 belonging to `CC(C)C(=O)N(C)[C@H]1CC[C@H](CC(=O)Nc2cnc(-c3ccc([C@]4(N)C[C@](C)(O)C4)cc3)c(-c3ccccc3)c2)CC1` and report it. 1.08

Which log10 IC50 is listed for `CC(C)N(C(=O)C1CC1)[C@H]1CC[C@H](CC(=O)Nc2cc(-c3ccccc3)c(-c3ccc([C@]4(N)C[C@](C)(O)C4)cc3)cn2)CC1` ? 2.04

Param item = `CN(C(=O)C1CCC1)[C@H]1CC[C@H](CC(=O)Nc2cc(-c3ccccc3)c(-c3ccc(C(C)(C)N)cc3)nn2)CC1` ; retrieve measured log10 IC50. 2.60

// returns reported log10 IC50 for input `C[C@]1(O)C[C@@](N)(c2ccc(-c3nnc(NC(=O)C[C@H]4CC[C@H](N5CCOC5=O)CC4)nc3-c3ccccc3F)cc2)C1` 2.61

What value of log10 IC50 has been recorded for this entry: COC(=O)N(C)[C@H]1CC[C@H](C(C)C(=O)Nc2cnc(-c3ccc(C(C)(C)N)cc3)c(-c3ccccc3)c2)CC1 (stereo partly shown) 2.68

Sample `CC(=O)N(C)[C@H]1CC[C@H](CC(=O)Nc2cc(-c3ccccc3)c(-c3ccc(C4(N)CC(F)(F)C4)cc3)nn2)CC1` — what was its log10 IC50? 1.82

Need log10 IC50, item `COC(=O)N(C(C)C)[C@H]1CC[C@H](CC(=O)Nc2cnc(-c3ccc([C@]4(N)C[C@](C)(O)C4)cc3)c(-c3ccccc3)c2)CC1` 1.04

Name the recorded log10 IC50 for `CC(C)(N)c1ccc(-c2cnc(NC(=O)C[C@H]3CC[C@H](N4CCCC4=O)CC3)cc2-c2ccccc2)cc1` . 2.30

meta.source: patent US10336702B2
